B1: LINE1-mini (parent)
chain: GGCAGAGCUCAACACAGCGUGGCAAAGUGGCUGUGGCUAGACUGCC

Variants of: B1
measurement_notes: self-cleavage, relative activity (ratio to wild type); higher = more cleavage; in vitro, sequencing; the parent is a self-cleaving ribozyme
recorded_metric: self-cleavage

Worked cases, self-cleavage given:
residues	self-cleavage
GGCAGACCUCAACACAGCGUGGCAAAGUGGCUGUGGCUAGAUUGCC	0.09
GGCAGAGCUCAACACAGCGUGGCCAAUUGGCUGUGGCUAGACUGCC	0.55
GGCAGAGCUCAACACAGCGUGGCAAAGUGACUGUGGCUAGACUCCC	0.56
GGUAGAGCUCACCACAGCGUGGCAAAGUGGCUGUGGCUAGACUGCC	0.06
GGCAGAGCUCAACACAGCGUGGAAAUGUGGCUGUGGCUAGACUGCC	0.88
GGCAGAGCUCAUCACAGCGUGGCAAAGUGGCUGUGGCUAGACUGCC	0.28
GGCAGAGCUCAACACAGAGUGGCAAAGUGGCUGUGGCUAGCCUGCC	0.05
UGCAGAGCUCAACACAGCGUGGCAAAAUGGCUGUGGCUAGACUGCC	0.36
GGCAGAGCUCAACAAAGCGUGGCAAAGUGGCUGUGGCUAGAUUGCC	0.05
GGCCGAGCUCAAGACAGCGUGGCAAAGUGGCUGUGGCUAGACUGCC	0.17

Give measured self-cleavage for every item shown.
1. GGCAGAGCUCAACACAGCGUGGCAAAGUGGCAGUGGCUAGACUGCU
2. GGCACAGCUCAACACAGCGUGGCAAAGUGGCUGUGGCUAGACUGAC
3. GGCAGAGCUCAACAUAGCGUGGCAAAGUGGCUGUGGGUAGACUGCC
4. GGCAGAGCGCAACACAGCGUGGCAAAGUGGCUGUGGCUAGACUGCU
5. GGCAGAGCUCUACACAGCGUGGCAAAGUUGCUGUGGCUAGACUGCC
6. GGCAGAGCUCAACACAGCGUGGCAAGGUGGCUGUGGCUCGACUGCC

1: 0.1; 2: 0.05; 3: 0.08; 4: 0.11; 5: 0.17; 6: 0.18
